# System: MDA-MB-231-GFP human breast cancer cells
# protocol notes: Visible lung metastases counted at sacrifice
# Assay type: in vivo, Nu/Nu female BALB/c mice
# condition set: 500 mg/kg diet each, control 70%
assay endpoint: Incidence of visible lung metastases

molecule: Cc1c(C)c2c(c(C)c1O)CCC(C)(CCCC(C)CCCC(C)CCCC(C)C)O2 (racemic) [all-rac-αT, all-racemic-α-tocopherol]
target or test system: MDA-MB-231-GFP human breast cancer cells
assay endpoint: Incidence of visible lung metastases
measured: 30%
--
molecule: Cc1c(C)c2c(c(C)c1O)CC[C@@](C)(CCC[C@H](C)CCC[C@H](C)CCCC(C)C)O2
target or test system: MDA-MB-231-GFP human breast cancer cells
assay endpoint: Incidence of visible lung metastases
measured: 60%
--
molecule: Cc1c(O)cc2c(c1C)O[C@](C)(CCC[C@H](C)CCC[C@H](C)CCCC(C)C)CC2
target or test system: MDA-MB-231-GFP human breast cancer cells
assay endpoint: Incidence of visible lung metastases
measured: 30%
--
molecule: Cc1c(C)c2c(c(C)c1OCC(=O)O)CC[C@@](C)(CCC[C@H](C)CCC[C@H](C)CCCC(C)C)O2
target or test system: MDA-MB-231-GFP human breast cancer cells
assay endpoint: Incidence of visible lung metastases
measured: 30%
